Test system: MS2 coat protein
Test: apparent KD of MS2 coat protein; designed switch direction (-1 OFF switch, 1 ON switch): 1; higher = weaker reporter binding
Conditions: Eterna round: R95; input ligand: none
outcome_measure: apparent KD of MS2 coat protein (nM)
Please reply with the bare figure in nM and do not write the unit itself.

Some entries whose results are on file:
| seq | quantitative_result |
| --- | --- |
| AUAAGUCCGAUGCUCGUCUCUCCGUACAAACAUGAGGAUCACCCAUGUGAUCGGGCAGUAGCCCGAUCAGUAUGGCC [Raedre] (puzzle: Sensor for hsa-mir-208a) | 56.4 |
| CUGUGUUGCGGGCAGGAUAUGUACUUGAGUACAUGAGGAUCACCCAUGUGCGGGUGUUUCACCCGACAGAAGGGCCUAUCGCGAC [JL-ss2-3.24 ViennaUCT mod] (puzzle: Same State 2) | 329 |
| GCCGCACAUGAGGAUCACCCAUGUAAUUACAUGGGAGGAUAUCAGUGCUCGAAAGAGCACUGAGAAGGCCUAAGGC [SS1 - Omei A] (puzzle: Same State 1) | 20.8 |
| GGUCCAGCCUGAGCUGGACAAAAGCAUGUACAUGAGGAUCACCCAUGUUCAUGUACAAGCUUUUUGCUCGUCUUAGG [salish99_208a_r3_070] (puzzle: Sensor for hsa-mir-208a) | 401 |
| AGCUUCAAACUUUGCUCGUCGCGCCAGCGACAUGAGGAUCACCCAUGUGGGCGCAACCUCGUUAGCCCGAGGGCUCG [Labire] (puzzle: Sensor for hsa-mir-208a) | 29 |

### Prompt Given the entry GGAGGAUGAGCGUAGGAUAUAGGAGGAGUGACAUGAGGAUCACCCAUGUAGUAGGAGGGAAAGGGCUAGAAGGACGAGGAAGAGG [JR_SS2_Sub071] (puzzle: Same State 2) , report its measured apparent KD of MS2 coat protein.
### Response 70.2

### Prompt # query: apparent KD of MS2 coat protein of entry UUAUAACAUGAGGAUCACCCAUGUCAUCUAAGUCGAGGAUAUGGGCAAAUAAUAUAAGAACCAGAAGGCGAAUAUU [Mat - Same State 1 - Mod of UCT - D46] (puzzle: Same State 1)
### Response 232

### Prompt For AGUCCAGCCUGAGCUGGACAAAAGCAUGUACAUGAGGAUCACCCAUGUUCAUGUACAAGCUUUUUGCUCGUCUUGCG [salish99_208a_r3_106x] (puzzle: Sensor for hsa-mir-208a) , what is its reported apparent KD of MS2 coat protein?
### Response 867

### Prompt Bench note: what apparent KD of MS2 coat protein did GUGCGAGUGCCACAGGAUAUACGUGGAUCGACAUGAGGAUCACCCAUGUAUAUCCUAAUAAUUGCGUAGAAGGGUGGUCAGUCGG [Inzage] (puzzle: Same State 2) show?
### Response 105

### Prompt If you can, please state the reported apparent KD of MS2 coat protein value of UGGUAACAUGAGGAUCACCCAUGUCAAAUGAAUCUAGGAUAUGGGAAAGGAGAAGAGAAACCAGAAGGAGAGGUUG [Altered State 1-14 - Jieux - Same State 1] (puzzle: Same State 1) .
### Response 107

### Prompt apparent KD of MS2 coat protein lookup needed for AAAGUACAUGAGGAUCACCCAUGUCCAAACAAGUAAGGAUAUACGAAAACAAAACAAAAUGUAGAAGGUACAACAA [Same State 1 #2] (puzzle: Same State 1) , thanks.
### Response 26.4
